# Tested on: neuroblastoma SH-SY5Y
# METHOD_DESCRIPTION: Safety, LDH test in SH-SY5Y
# Assay type: cell-based
# CONDITION_PARAMETERS: 150 µM; 48 hours; positive control Triton X-100
RESULT_TYPE: Neuroblastoma SH-SYSY LDH

Completed entries (count: 4):
# SMI, Neuroblastoma SH-SYSY LDH
records = [
    ("O=C(/C=C/c1ccc(Cl)cc1)NCCO", "4.45 percentage of positive control"),
    ("Cc1ccc(/C=C/C(=O)NCCCCCO)cc1", "7.24 percentage of positive control"),
    ("O=C(/C=C/c1ccccc1)NCCCCCO", "6.93 percentage of positive control"),
    ("O=C(/C=C/c1ccc(Cl)cc1)NCCCO", "4.90 percentage of positive control"),
]

Per the record, O=C(/C=C/c1ccc(Cl)cc1)NCCCCCO has Neuroblastoma SH-SYSY LDH of 4.61 percentage of positive control
